assay type: cell-based, human; settings: human, Cell viability (%)
Bridge positions count the residues as written; N and C are the ends. Square brackets hold non-standard residues; d marks the D form. Peptide text beside a SMILES is read from it. * marks the point of attachment. Propanoyl(3-guanidino) = N=C(N)NCCC(=O)*; X1 = N=C(N)N[C@@H](Cc1ccccc1)C(=O)*
For each of the molecules below, state its viability at 2 h, 6.25 µM.
Answers are plain numbers, in %.

Consider the following illustrative entries.
CC[C@H](C)[C@H](NC(=O)[C@H](CCCNC(=N)N)NC(=O)[C@@H]1CCCCNC(=N)NCCCC[C@H](NC(=O)[C@H](Cc2ccccc2)NC(=O)[C@H](Cc2c[nH]c3ccccc23)NC(=O)[C@@H]2CCCN2C(=O)[C@@H](NC(=O)[C@@H](N)Cc2ccccc2)C(C)C)C(=O)N[C@@H](CCCCN)C(=O)N[C@@H](Cc2ccccc2)C(=O)N[C@H](CC(C)C)C(=O)N1)C(=O)N[C@@H](CC(C)C)C(N)=O [Peptide 11, FVPWF{KKFlK}RIL] : 98
CC[C@H](C)[C@H](NC(=O)[C@H](CCCNC(=N)N)NC(=O)[C@H]1CCC(=O)NCCCC[C@H](NC(=O)[C@H](Cc2ccccc2)NC(=O)[C@H](Cc2c[nH]c3ccccc23)NC(=O)[C@@H]2CCCN2C(=O)[C@@H](NC(=O)[C@H](Cc2ccccc2)NC(=N)N)C(C)C)C(=O)N[C@@H](CCCCN)C(=O)N[C@@H](Cc2ccccc2)C(=O)N[C@H](CC(C)C)C(=O)N1)C(=O)N[C@@H](CC(C)C)C(N)=O [Peptide 3, guanidino-FVPWF[KKFle]RIL] (X1-VPWFKKF[dL][dE]RIL-NH2; lactam 5-9) : 137

Read the next record carefully.
Query block: Return reported viability at 2 h, 6.25 µM; argument: CC[C@H](C)[C@H](NC(=O)[C@H](CCCNC(=N)N)NC(=O)[C@H]1CCC(=O)NCCCC[C@H](NC(=O)[C@H](Cc2ccccc2)NC(=O)[C@H](Cc2c[nH]c3ccccc23)NC(=O)[C@@H]2CCCN2C(=O)[C@@H](NC(=O)[C@H](Cc2ccccc2)NC(=O)CCNC(=N)N)C(C)C)C(=O)N[C@@H](CCCCN)C(=O)N[C@@H](Cc2ccccc2)C(=O)N[C@H](CC(C)C)C(=O)N1)C(=O)N[C@@H](CC(C)C)C(N)=O [Peptide 4, guanidino-βAla-FVPWF[KKFle]RIL] ({Propanoyl(3-guanidino)}-FVPWFKKF[dL][dE]RIL-NH2; lactam 6-10)
Result block: 100

---

type: cell-based, human; details: human, CC50
Bridge positions count the residues as written; N and C are the ends. Square brackets hold non-standard residues; d marks the D form. Peptide text beside a SMILES is read from it. * marks the point of attachment. Butanoyl(4-guanidino) = N=C(N)NCCCC(=O)*; Propanoyl(3-guanidino) = N=C(N)NCCC(=O)*
For each of the molecules below, state its CC50 at 24 h.
Give bare numbers, in µM.

CC[C@H](C)[C@H](NC(=O)[C@H](CCCNC(=N)N)NC(=O)[C@H]1CCC(=O)NCCCC[C@H](NC(=O)[C@H](Cc2ccccc2)NC(=O)[C@H](Cc2c[nH]c3ccccc23)NC(=O)[C@@H]2CCCN2C(=O)[C@@H](NC(=O)[C@H](Cc2ccccc2)NC(=O)CCCNC(=N)N)C(C)C)C(=O)N[C@@H](CCCCN)C(=O)N[C@@H](Cc2ccccc2)C(=O)N[C@H](CC(C)C)C(=O)N1)C(=O)N[C@@H](CC(C)C)C(N)=O [Peptide 5, guanidino-GABA-FVPWF[KKFle]RIL] ({Butanoyl(4-guanidino)}-FVPWFKKF[dL][dE]RIL-NH2; lactam 6-10) : 24.6

Read the next record carefully.
Query block: Return reported CC50 at 24 h; argument: CC[C@H](C)[C@H](NC(=O)[C@H](CCCNC(=N)N)NC(=O)[C@H]1CCC(=O)NCCCC[C@H](NC(=O)[C@H](Cc2ccccc2)NC(=O)[C@H](Cc2c[nH]c3ccccc23)NC(=O)[C@@H]2CCCN2C(=O)[C@@H](NC(=O)[C@H](Cc2ccccc2)NC(=O)CCNC(=N)N)C(C)C)C(=O)N[C@@H](CCCCN)C(=O)N[C@@H](Cc2ccccc2)C(=O)N[C@H](CC(C)C)C(=O)N1)C(=O)N[C@@H](CC(C)C)C(N)=O [Peptide 4, guanidino-βAla-FVPWF[KKFle]RIL] ({Propanoyl(3-guanidino)}-FVPWFKKF[dL][dE]RIL-NH2; lactam 6-10)
Result block: 19.4
